molecular target: human PD-1 (human, UniProt Q15116); assay: competition ELISA, PD-L1 blocking
measurement.name: pIC50
Bear in mind: pIC50 is minus log10 of a mol/L concentration; give just that figure.

Data point: Antibody 28 PD-1 arm (antibody, V domains shown) VH: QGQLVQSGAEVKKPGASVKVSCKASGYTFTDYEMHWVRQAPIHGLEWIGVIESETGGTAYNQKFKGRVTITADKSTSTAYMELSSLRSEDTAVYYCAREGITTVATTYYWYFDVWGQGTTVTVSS VL: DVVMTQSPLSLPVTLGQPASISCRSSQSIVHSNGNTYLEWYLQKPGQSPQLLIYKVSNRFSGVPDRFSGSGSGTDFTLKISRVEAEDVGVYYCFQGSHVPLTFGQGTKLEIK ; pIC50 = 6.24

Data point: Antibody 27 PD-1 arm (antibody, V domains shown) VH: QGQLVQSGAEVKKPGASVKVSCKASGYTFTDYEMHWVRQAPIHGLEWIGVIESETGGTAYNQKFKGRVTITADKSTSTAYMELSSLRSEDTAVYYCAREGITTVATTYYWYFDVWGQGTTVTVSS VL: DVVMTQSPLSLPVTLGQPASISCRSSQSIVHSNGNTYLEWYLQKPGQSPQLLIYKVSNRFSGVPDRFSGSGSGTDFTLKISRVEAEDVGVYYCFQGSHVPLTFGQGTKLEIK ; pIC50 = 6.53

Data point: Antibody 23 PD-1 arm (antibody, V domains shown) VH: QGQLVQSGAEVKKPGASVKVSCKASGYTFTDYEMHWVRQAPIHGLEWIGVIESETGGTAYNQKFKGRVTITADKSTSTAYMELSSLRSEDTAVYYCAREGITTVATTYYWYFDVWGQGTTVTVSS VL: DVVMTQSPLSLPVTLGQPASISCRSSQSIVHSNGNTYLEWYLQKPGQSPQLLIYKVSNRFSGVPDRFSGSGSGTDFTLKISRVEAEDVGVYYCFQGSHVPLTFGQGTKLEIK ; pIC50 = 6.53

Data point: Antibody 24 PD-1 arm (antibody, V domains shown) VH: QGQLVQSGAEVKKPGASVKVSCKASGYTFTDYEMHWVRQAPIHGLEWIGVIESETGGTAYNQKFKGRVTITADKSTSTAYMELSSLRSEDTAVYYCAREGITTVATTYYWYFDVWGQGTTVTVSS VL: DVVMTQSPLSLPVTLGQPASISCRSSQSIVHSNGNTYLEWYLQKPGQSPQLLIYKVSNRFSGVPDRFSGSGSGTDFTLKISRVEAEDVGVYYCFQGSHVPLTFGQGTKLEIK ; pIC50 = 6.61
